assay: inhibitors of Chlamydomonas gravitaxis, primary screen, whole organism, Chlamydomonas reinhardtii, WT vs cilia-less mutant, absorbance, 96-well (AID 463189); settings: OD600 absorbance, 2 days, at 10 µM, stronger effect = higher value;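 note: 0% = wild type cc124 cells in DMSO and 100% = ciliumless bld1 mutant cells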
OBSERVABLE: inhibition (%)
State just the number; it will be interpreted in %.

// field: inhibition; key: COc1ccc(OC)c(C2C(C#N)=C(N)Oc3cc(C)[nH]c(=O)c32)c1 (stereo not drawn) ; value = 15.7

// field: inhibition; key: COC(=O)c1c(NC(=O)c2nn(C)cc2Cl)sc2c1CCCC2 ; value = 23.3

// field: inhibition; key: CCc1cccc(CC)c1N(COC)C(=O)Cn1nnc2ccccc21 ; value = 23.5
